- protocol conditions: 298.15 K; 40000 kPa; Liquid; Vibrating tube method
Listing: mass density of selected compounds
Unit kg/m3 implied. Number only.

Example cases with answers are listed next.
- compound: "CCCCOCC [butyl ethyl ether]"
  mass density [kg/m3]: 780.01
- compound: "CC(C)OC(C)C [diisopropyl ether]"
  mass density [kg/m3]: 758.89
- compound: "CCOC(C)(C)C [2-ethoxy-2-methylpropane]"
  mass density [kg/m3]: 773.96
- compound: "CC(C)CCOCCC(C)C [di-(3-methylbutyl) ether]"
  mass density [kg/m3]: 800.51
- compound: "CCCOCCC [dipropyl ether]"
  mass density [kg/m3]: 778.42
- compound: "CCCCOC [butyl methyl ether]"
  mass density [kg/m3]: 776.76

For the compound COC(C)(C)C [2-methoxy-2-methylpropane] , give its measured mass density value.
773.81

For the compound CCCCCOCCCCC [dipentyl ether] , give its measured mass density value.
807.2
